Recorded IC50 for the following compounds
SYSTEM_UNDER_TEST: human AT1 receptor (Homo sapiens)
Construct: expressed in transfected cells; membrane fraction
Sequence (P30556 whole entry): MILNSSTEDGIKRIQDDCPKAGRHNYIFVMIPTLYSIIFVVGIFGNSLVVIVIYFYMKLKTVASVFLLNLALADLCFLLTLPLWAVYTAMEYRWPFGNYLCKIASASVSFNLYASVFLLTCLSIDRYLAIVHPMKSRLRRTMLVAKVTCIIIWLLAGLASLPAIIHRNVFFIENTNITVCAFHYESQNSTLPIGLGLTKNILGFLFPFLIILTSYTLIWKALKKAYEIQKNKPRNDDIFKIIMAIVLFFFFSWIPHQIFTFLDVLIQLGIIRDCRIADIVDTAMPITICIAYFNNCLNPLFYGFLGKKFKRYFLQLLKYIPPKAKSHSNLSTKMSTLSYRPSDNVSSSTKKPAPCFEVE
EXPERIMENT_DESCRIPTION: AT1 receptor antagonistic activity: [125I]-angiotensin II binding assay on human AT1 receptor-expressing CHO-K1 cellular membrane fraction
CONDITION_NOTES: 22.5 pM [125I]-angiotensin II, 1 hr room temperature

COMPOUND	IC50
CCCc1c(Cc2ccc(-c3ccccc3-c3noc(=O)[nH]3)cc2)c(=O)n(C2CCC3(CC2)O[C@H]2COC[C@H]2O3)c2ncnn12 (stereo partly shown) [Example 293]	2.3 nM
CCCc1c(Cc2ccc(-c3ccccc3-c3noc(=O)[nH]3)cc2F)c(=O)n([C@H]2CC[C@H](OCC(C)(C)O)CC2)c2ncnn12 [Example 233]	1.9 nM
CCCc1c(Cc2ccc(-c3ccccc3-c3noc(=O)[nH]3)cc2)c(=O)n([C@H]2CC[C@H](OC(CC)C(C)(C)O)CC2)c2ncnn12 (stereo partly shown) [Example 348]	1.9 nM
CCCc1c(Cc2ccc(-c3ccccc3-c3noc(=O)[nH]3)cc2)c(=O)n(C/C(=N\OCC)C(F)(F)F)c2nc(C)nn12 [Example 107]	1.9 nM
CCCc1c(Cc2ccc(-c3ccccc3-c3noc(=O)[nH]3)cc2)c(=O)n(C2CCCOC2)c2ncnn12 (stereo not shown) [Example 124]	2.4 nM
CCCc1c(Cc2ccc(-c3ccccc3-c3noc(=O)[nH]3)cc2)c(=O)n(CC(C)(C)C)c2nc(C)nn12 [Example 2]	1.3 nM
CCCc1c(Cc2ccc(-c3ccccc3-c3noc(=O)[nH]3)cc2)c(=O)n([C@H]2CC[C@H](OCC3(C#N)CCC3)CC2)c2ncnn12 [Example 227]	2.5 nM
CCCc1c(Cc2ccc(-c3ccccc3-c3noc(=O)[nH]3)cc2F)c(=O)n([C@H]2CC[C@H](OCC3(O)CCC3)CC2)c2ncnn12 [Example 252]	2.4 nM
CCCc1c(Cc2ccc(-c3ccccc3-c3noc(=O)[nH]3)cc2)c(=O)n([C@H]2CC[C@H](c3cnco3)CC2)c2ncnn12 [Example 184]	2.5 nM
CCCc1c(Cc2ccc(-c3ccccc3-c3nnn[nH]3)cc2)c(=O)n(C2CCC3(CC2)OC(C)(C)C(C)(C)O3)c2ncnn12 [Example 181]	3.2 nM
CCCCc1c(Cc2ccc(-c3ccccc3-c3noc(=O)[nH]3)cc2)c(=O)n([C@H]2CC[C@H](OCC(C)O)CC2)c2ccnn12 (relative stereo) [Example 436]	1.8 nM
CCCc1c(Cc2ccc(-c3ccccc3-c3noc(=O)[nH]3)cc2F)c(=O)n([C@H]2CC[C@H](O)CC2)c2ncnn12 [Example 167]	0.8 nM
CCCc1c(Cc2ccc(-c3ccccc3-c3noc(=O)[nH]3)cc2F)c(=O)n(C2CCOCC2)c2nc(C)nn12 [Example 108]	1.5 nM
CCCc1c(Cc2ccc(-c3ccccc3-c3noc(=O)[nH]3)cc2)c(=O)n([C@H]2CC[C@H](Oc3ccc(O)cc3)CC2)c2ncnn12 [Example 273]	1.7 nM
CCCc1c(Cc2ccc(-c3ccccc3-c3noc(=O)[nH]3)cc2F)c(=O)n(C2CCOC(C)(C)C2)c2nc(C)nn12 (stereo not shown) [Example 136]	1.3 nM
CCCc1c(Cc2ccc(-c3ccccc3-c3noc(=O)[nH]3)cc2)c(=O)n([C@H]2CC[C@](C)(CO)CC2)c2ncnn12 [Example 189]	3.1 nM
CCCCc1c(Cc2ccc(-c3ccccc3-c3noc(=O)[nH]3)cc2)c(=O)n(C2CCOC(C)C2)c2ncnn12 (stereo not shown) [Example 161]	1.2 nM
CCCc1c(Cc2ccc(-c3ccccc3-c3noc(=O)[nH]3)cc2F)c(=O)n(C2CCOCC2)c2ncnn12 [Example 117]	1.3 nM
CCCCc1c(Cc2ccc(-c3ccccc3-c3noc(=O)[nH]3)cc2)c(=O)n([C@@H]2C[C@@H](C)O[C@@H](C)C2)c2ncnn12 [Example 138]	1.3 nM
CCCc1c(Cc2ccc(-c3ccccc3-c3noc(=O)[nH]3)cc2)c(=O)n([C@H]2CC[C@H](c3nc(C)no3)CC2)c2ncnn12 [Example 169]	1.4 nM
CCCc1c(Cc2ccc(-c3ccccc3-c3noc(=O)[nH]3)cc2)c(=O)n(CC2CC2)c2ncnn12 [Example 21]	2 nM
CCCCc1c(Cc2ccc(-c3ccccc3-c3noc(=O)[nH]3)cc2)c(=O)n([C@H]2C[C@@H](C)O[C@@H](C)C2)c2ncnn12 [Example 139]	1.7 nM
CCCc1c(Cc2ccc(-c3ccccc3-c3noc(=O)[nH]3)cc2)c(=O)n(C2CCC(C(C)(C)O)CC2)c2ncnn12 (stereo not shown) [Example 376]	1.2 nM
CCCc1c(Cc2ccc(-c3ccccc3-c3noc(=O)[nH]3)cc2)c(=O)n(CC2(C)CC2)c2nc(C)nn12 [Example 69]	1.4 nM
CCCc1c(Cc2ccc(-c3ccccc3-c3noc(=O)[nH]3)cc2)c(=O)n(C2CCC(C)OC2)c2nc(C)nn12 (stereo not shown) [Example 144]	1.4 nM

Origin of values: patent US8283353B2
